# reported Survival rate; entries follow
system: zebrafish larvae; assay: In vivo maximum-tolerated concentration (MTC) study in zebrafish larvae; design: species or system zebrafish (Danio rerio); conditions: 50 μM, larvae 4 dpf, 24-h treatment, fifteen larvae
Observation Type: Survival rate

[
  {
    "Compound": "CCC(=O)n1cc2c3c(cccc31)C1=C[C@@H](C(=O)N(CC)CC)CN(C)[C@@H]1C2 [Metabolite 1P-LSD, 1-propionyl-d-lysergic acid diethylamide]",
    "Result": "100%"
  },
  {
    "Compound": "CCCC(NCC)C(=O)c1ccc2c(c1)OCO2 (centres unmarked)",
    "Result": "100%"
  },
  {
    "Compound": "COC(=O)C(NC(=O)c1nn(CCCCF)c2ccccc12)C(C)(C)C (centres unmarked)",
    "Result": "73%"
  },
  {
    "Compound": "CCCCC(C(=O)c1ccc(F)cc1)N1CCCC1 (stereo not drawn) [Metabolite 4F-PHP, 4-fluoro-alpha-pyrrolidinohexiophenone]",
    "Result": "100%"
  },
  {
    "Compound": "COc1ccccc1CNC(C)Cc1ccc(OC)c(OC)c1 (centres unmarked)",
    "Result": "100%"
  }
]

----------
tested on: HepaRG cells; experiment: Incubations with HepaRG cells, metabolite identification by LC-HRMS/MS; assay type: in vitro ADME, human; details: 25 μM, 24 h
Observation Type: Number of phase I metabolites detected, HepaRG [25 μM]

[
  {
    "Molecule": "COc1ccccc1CNC(C)Cc1ccc(OC)c(OC)c1 (centres unmarked) [3,4-DMA-NBOMe]",
    "Test Target": "HepaRG cells",
    "Number": 6
  },
  {
    "Molecule": "CCC(=O)n1cc2c3c(cccc31)C1=C[C@@H](C(=O)N(CC)CC)CN(C)[C@@H]1C2 [Metabolite 1P-LSD, 1-propionyl-d-lysergic acid diethylamide]",
    "Test Target": "HepaRG cells",
    "Number": 14
  },
  {
    "Molecule": "CCCCC(C(=O)c1ccc(F)cc1)N1CCCC1 (stereo not drawn) [Metabolite 4F-PHP, 4-fluoro-alpha-pyrrolidinohexiophenone]",
    "Test Target": "HepaRG cells",
    "Number": 5
  },
  {
    "Molecule": "COC(=O)C(NC(=O)c1nn(CCCCF)c2ccccc12)C(C)(C)C (centres unmarked) [4F-MDMB-BINACA]",
    "Test Target": "HepaRG cells",
    "Number": 7
  },
  {
    "Molecule": "CCCC(NCC)C(=O)c1ccc2c(c1)OCO2 (centres unmarked) [Ephylone, N-ethylnorpentylone]",
    "Test Target": "HepaRG cells",
    "Number": 2
  }
]

----------
system: HepaRG cells; experiment: Incubations with HepaRG cells, metabolite identification by LC-HRMS/MS; format: in vitro ADME, human; conditions: 25 μM parent NPS, 24 h, cell culture medium, one replicate of n = 3; n.d. = not detected

[
  {
    "Compound": "CCCCC(C(O)c1ccc(F)cc1)N1CCCC1 (centres unmarked)",
    "Absolute peak area, HepaRG [25 μM]": "1.18E+07"
  },
  {
    "Compound": "CC(C)(C)[C@H](NC(=O)c1nn(CCCCF)c2ccccc12)C(=O)O[C@@H]1O[C@H](C(=O)O)[C@@H](O)[C@H](O)[C@H]1O",
    "Absolute peak area, HepaRG [25 μM]": "2.56E+07"
  },
  {
    "Compound": "COc1ccc(CC(C)NCc2ccccc2O)cc1OC (centres unmarked)",
    "Absolute peak area, HepaRG [25 μM]": "1.19E+07"
  },
  {
    "Compound": "CCCCC(N)C(=O)c1ccc(F)cc1 (centres unmarked)",
    "Absolute peak area, HepaRG [25 μM]": "1.48E+05"
  },
  {
    "Compound": "CC(O)CCC(C(=O)c1ccc(F)cc1)N1CCCC1 (centres unmarked)",
    "Absolute peak area, HepaRG [25 μM]": "1.14E+06"
  },
  {
    "Compound": "CCNC(=O)[C@@H]1C=C2c3cccc4[nH]cc(c34)C[C@H]2NC1",
    "Absolute peak area, HepaRG [25 μM]": "3.89E+05"
  },
  {
    "Compound": "CCN(CC)C(=O)[C@@H]1C=C2c3cccc4[nH]cc(c34)C[C@H]2N(C)C1",
    "Absolute peak area, HepaRG [25 μM]": "8.59E+08"
  },
  {
    "Compound": "CCCC(NCC)C(=O)c1ccc(O)c(O)c1 (centres unmarked)",
    "Absolute peak area, HepaRG [25 μM]": "1.72E+05"
  },
  {
    "Compound": "CCN(CCO)C(=O)C1C=C2c3cccc4[nH]cc(c34)CC2N(C)C1 (centres unmarked)",
    "Absolute peak area, HepaRG [25 μM]": "4.01E+05"
  },
  {
    "Compound": "CC(O)CCC(C(O)c1ccc(F)cc1)N1CCCC1 (centres unmarked)",
    "Absolute peak area, HepaRG [25 μM]": "8.15E+05"
  },
  {
    "Compound": "CC(C)(C)C(NC(=O)c1nn(CCCCF)c2ccccc12)C(=O)O (centres unmarked)",
    "Absolute peak area, HepaRG [25 μM]": "5.16E+07"
  },
  {
    "Compound": "COc1ccc(CC(C)N)cc1OC (centres unmarked)",
    "Absolute peak area, HepaRG [25 μM]": "4.04E+07"
  },
  {
    "Compound": "O=C(O)c1nn(CCCCF)c2ccccc12",
    "Absolute peak area, HepaRG [25 μM]": "3.34E+04"
  },
  {
    "Compound": "CCC(=O)n1cc2c3c(cccc31)C1=C[C@@H](C(=O)N(CC)CC)CN[C@@H]1C2",
    "Absolute peak area, HepaRG [25 μM]": "3.19E+04"
  },
  {
    "Compound": "CCNC(=O)[C@@H]1C=C2c3cccc4[nH]cc(c34)C[C@H]2N(C)C1",
    "Absolute peak area, HepaRG [25 μM]": "3.19E+07"
  },
  {
    "Compound": "CC(C)(C)[C@H](NC(=O)c1nn(CCCC(=O)O)c2ccccc12)C(=O)O",
    "Absolute peak area, HepaRG [25 μM]": "1.68E+05"
  },
  {
    "Compound": "COC(=O)[C@@H](NC(=O)c1nn(CCCC(=O)O)c2ccccc12)C(C)(C)C",
    "Absolute peak area, HepaRG [25 μM]": "1.15E+04"
  },
  {
    "Compound": "COC(=O)C(NC(=O)c1nn(CCCCF)c2ccccc12)C(C)(C)C (centres unmarked)",
    "Absolute peak area, HepaRG [25 μM]": "1.28E+08"
  },
  {
    "Compound": "CCCCC(C(=O)c1ccc(F)cc1)N1CCCC1 (stereo not drawn) [Metabolite 4F-PHP, 4-fluoro-alpha-pyrrolidinohexiophenone]",
    "Absolute peak area, HepaRG [25 μM]": "6.65E+08"
  },
  {
    "Compound": "CCC(=O)n1cc2c3c(cccc31)C1=C[C@@H](C(=O)N(CC)CC)CN(C)[C@@H]1C2 [Metabolite 1P-LSD, 1-propionyl-d-lysergic acid diethylamide]",
    "Absolute peak area, HepaRG [25 μM]": "3.60E+07"
  }
]

----------
system: zebrafish larvae; assay: Zebrafish larvae exposure, metabolite identification by LC-HRMS/MS; settings: 100 µM parent NPS in medium, larvae 4 dpf, 24 h, larvae extract, one replicate of n = 3; n.d. = not detected
# reported Absolute peak area, Zebrafish larvae [100 µM]; entries follow
Observation Type: Absolute peak area, Zebrafish larvae [100 µM]

[
  {
    "Compound": "COc1ccc(CC(C)NCc2ccccc2O)cc1OC (centres unmarked) [MN7]",
    "Number": "1.19E+08"
  },
  {
    "Compound": "CCC(=O)n1cc2c3c(cccc31)C1=C[C@@H](C(=O)N(CC)CC)CN(C)[C@@H]1C2O (some centres unmarked) [ML24]",
    "Number": "3.37E+07"
  },
  {
    "Compound": "COc1ccccc1CN(O)C(C)Cc1ccc(OC)c(OC)c1 (centres unmarked) [MN12]",
    "Number": "8.81E+06"
  },
  {
    "Compound": "CCCC(N)C(=O)c1ccc2c(c1)OCO2 (centres unmarked) [ME1]",
    "Number": "4.12E+06"
  },
  {
    "Compound": "CCCCC(C(=O)c1ccc(F)cc1)N1CCCC1=O (centres unmarked) [MP4]",
    "Number": "8.64E+05"
  }
]

----------
# reported Number of phase II metabolites detected, HepaRG [25 μM]; entries follow
test system: HepaRG cells; experiment: Incubations with HepaRG cells, metabolite identification by LC-HRMS/MS; format: in vitro ADME, human; settings: 25 μM, 24 h
Observation Type: Number of phase II metabolites detected, HepaRG [25 μM]

[
  {
    "Compound": "COc1ccccc1CNC(C)Cc1ccc(OC)c(OC)c1 (centres unmarked)",
    "Result": 4
  },
  {
    "Compound": "CCCCC(C(=O)c1ccc(F)cc1)N1CCCC1 (stereo not drawn) [Metabolite 4F-PHP, 4-fluoro-alpha-pyrrolidinohexiophenone]",
    "Result": 0
  },
  {
    "Compound": "COC(=O)C(NC(=O)c1nn(CCCCF)c2ccccc12)C(C)(C)C (centres unmarked)",
    "Result": 2
  },
  {
    "Compound": "CCCC(NCC)C(=O)c1ccc2c(c1)OCO2 (centres unmarked)",
    "Result": 4
  },
  {
    "Compound": "CCC(=O)n1cc2c3c(cccc31)C1=C[C@@H](C(=O)N(CC)CC)CN(C)[C@@H]1C2 [Metabolite 1P-LSD, 1-propionyl-d-lysergic acid diethylamide]",
    "Result": 1
  }
]
